tested on: MDR1-MDCK cell monolayers; test: Blood-brain-barrier (BBB) penetration potential via MDCK-MDR1 permeability assay; details: A-B direction
reportedEndpoint: MDCK-MDR1: % Recov A-B (%)

- CN(c1ccc(-c2cc3ncccc3cc2O)nn1)[C@@H]1C[C@H]2CC[C@H](N2)[C@@H]1F [Compound 73A]: 76
- CN(c1ccc(-c2ccc(-n3ccnc3)cc2O)nn1)[C@@H]1C[C@H]2CC(F)(F)[C@@H](C1)N2 [Compound 13A]: 92
- CN(c1ccc(-c2cc3cnn(C)c3cc2O)nn1)[C@H]1C[C@@H]2CC[C@@H](N2)[C@H]1F [Compound 76B]: 84
- CN(c1ccc(-c2ccc(-n3cnc(C#N)c3)cc2O)nn1)[C@@H]1C[C@H]2CC[C@H](N2)[C@@H]1F [Compound 69A]: 87
